Where do the numbers come from? From ChEMBL document CHEMBL4811320.

- SYSTEM_UNDER_TEST: Histamine H3 receptor (Homo sapiens, UniProt Q9Y5N1)
- Sequence (Q9Y5N1 whole entry): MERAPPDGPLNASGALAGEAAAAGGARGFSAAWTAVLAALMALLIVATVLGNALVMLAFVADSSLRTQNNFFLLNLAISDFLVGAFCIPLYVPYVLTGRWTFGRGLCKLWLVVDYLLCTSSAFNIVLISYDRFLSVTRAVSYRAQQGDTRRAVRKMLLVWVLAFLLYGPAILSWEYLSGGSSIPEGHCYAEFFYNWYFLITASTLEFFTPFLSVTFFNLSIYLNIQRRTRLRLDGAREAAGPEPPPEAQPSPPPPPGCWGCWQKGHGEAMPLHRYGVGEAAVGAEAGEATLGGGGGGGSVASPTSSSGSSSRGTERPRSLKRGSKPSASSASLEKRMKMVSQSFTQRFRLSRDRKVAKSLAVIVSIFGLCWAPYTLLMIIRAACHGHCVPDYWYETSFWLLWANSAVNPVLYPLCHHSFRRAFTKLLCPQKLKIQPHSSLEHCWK
- RUN_DESCRIPTION: Antagonist activity at human H3 receptor by TR-FRET assay
pIC50: −log10 of the molar value.
RECORDED_ENDPOINT: pIC50

Reference set (5 entries):
Query: What pIC50 value was documented for this compound, `CN(C)CCCOc1ccc(/C=C/c2cc(=O)c(O)co2)cc1` ?
Reply: 6.98

Query: What pIC50 value was documented for this compound, `O=c1cc(/C=C/c2ccc(OCCCN3CCCC3)cc2)occ1O` ?
Reply: 8.08

Query: What pIC50 value was documented for this compound, `Cn1cc(O)c(=O)cc1/C=C/c1ccc(OCCCN2CCOCC2)cc1` ?
Reply: 7.52

Query: What pIC50 value was documented for this compound, `Cc1oc(/C=C/c2ccc(OCCCN3CCCC3)cc2)cc(=O)c1O` ?
Reply: 8.31

Query: What pIC50 value was documented for this compound, `O=c1cc(/C=C/c2ccc(OCCCN3CCCCC3)cc2)occ1O` ?
Reply: 8.56

(A) Oc1cccc2ccc(/C=C/c3ccc(OCCCN4CCCC4)cc3)nc12
(B) CCN(CC)CCCOc1ccc(/C=C/c2cc(=O)c(O)cn2C)cc1
Query: Two entries are listed, A and B . Which one carries the higher pIC50? // return label of chosen record
Reply: B
(B: 8.15, A: 7.80)

(P) Oc1cccc2ccc(/C=C/c3ccc(OCCCN4CCCCC4)cc3)nc12
(Q) CCn1cc(O)c(=O)cc1/C=C/c1ccc(OCCCN2CCCC2)cc1
Query: Two entries are listed, P and Q . Which one carries the higher pIC50? // return label of chosen record
Reply: Q
(Q: 8.66, P: 7.84)

(I) CN1CCN(CCCOc2ccc(/C=C/c3cc(=O)c(O)co3)cc2)CC1
(II) Cn1cc(O)c(=O)cc1/C=C/c1ccc(OCCCN2CCCCC2)cc1
Query: Two entries are listed, I and II . Which one carries the higher pIC50? // return label of chosen record
Reply: II
(II: 8.32, I: 6.75)
